| Molecule | melting point |
| --- | --- |
| COCCOc1nc(Nc2cccc(NS(C)(=O)=O)c2)nc2[nH]cnc12 [Example 32] | 201 to 204 °C |
| CN(CCC#N)c1nc(Nc2cccc(NS(C)(=O)=O)c2)nc2[nH]cnc12 [Example 8] | 218 to 222 °C |
| CC(C)(CO)Nc1nc(Nc2cccc(NS(C)(=O)=O)c2)nc2[nH]cnc12 [Example 16] | 215 to 218 °C |
| CC(C)N(C)c1nc(Nc2cccc(NS(C)(=O)=O)c2)nc2[nH]cnc12 [Example 36] | 144 to 147 °C |
| CS(=O)(=O)Nc1cccc(Nc2nc(NCCN3CCOCC3)c3nc[nH]c3n2)c1 [Example 22] | 233 to 237 °C |
| CS(=O)(=O)Nc1cccc(Nc2nc(OCC3CCCCC3)c3nc[nH]c3n2)c1 [Example 24] | 169 to 172 °C |
| CS(=O)(=O)Nc1ccc(Nc2nc(NC3CCCC3)c3nc[nH]c3n2)cc1 [Example 44] | 261 to 265 °C |
| Cc1cn(-c2nc(Nc3cccc(NS(C)(=O)=O)c3)nc3[nH]cnc23)cn1 [Example 13] | 298 to 301 °C |
| CN1CCN(c2nc(Nc3cccc(NS(C)(=O)=O)c3)nc3[nH]cnc23)CC1 [Example 18] | 148 to 151 °C |
| CS(=O)(=O)Nc1cccc(Nc2nc(NCc3cccc(N)c3)c3nc[nH]c3n2)c1 [Example 72] | 170 to 173 °C |

* * *

Each entry below lists one item and its recorded melting point value.
Quantity Name: melting point

| Compound | Value Observed |
| --- | --- |
| CS(=O)(=O)Nc1cccc(Nc2nc(Oc3ccc(F)cc3)c3nc[nH]c3n2)c1 | 136 to 139 °C |
| CC(=O)Nc1cccc(CNc2nc(Nc3cccc(NS(C)(=O)=O)c3)nc3[nH]cnc23)c1 | 159 to 162 °C |
| CS(=O)(=O)Nc1cccc(Nc2nc(N3CCN(c4ccncc4)CC3)c3nc[nH]c3n2)c1 | 227 to 230 °C |
| C=CS(=O)(=O)Nc1cccc(Nc2nc(N[C@H](C)C(C)(C)C)c3nc[nH]c3n2)c1 | 133 to 136 °C |
| CN(C)c1ccc(CNc2nc(Nc3cccc(NS(C)(=O)=O)c3)nc3[nH]cnc23)cc1 | 138 to 142 °C |
| CS(=O)(=O)Nc1cccc(Nc2nc(NCc3cccnc3)c3nc[nH]c3n2)c1 | 144 to 147 °C |
| CS(=O)(=O)Nc1cccc(Nc2nc(N3CCCC3)c3nc[nH]c3n2)c1 | 164 to 168 °C |
| C[C@@H](Nc1nc(Nc2cccc(NS(C)(=O)=O)c2)nc2[nH]ccc12)C(C)(C)C | 125 to 128 °C |
| CC(C)NCCNc1nc(Nc2cccc(NS(C)(=O)=O)c2)nc2[nH]ccc12 | 127 to 131 °C |
| CS(=O)(=O)Nc1cccc(Nc2nc(NC3CN4CCC3CC4)c3nc[nH]c3n2)c1 (stereo not shown) | 200 to 204 °C |
| CN(C)c1cccc(CNc2nc(Nc3cccc(NS(C)(=O)=O)c3)nc3[nH]cnc23)c1 | 148 to 151 °C |
| C[C@H](Nc1nc(Nc2cccc(NS(C)(=O)=O)c2)nc2[nH]cnc12)c1ccccc1 | 141 to 144 °C |
| CS(=O)(=O)Nc1cccc(Nc2nc(NCc3ccccc3O)c3nc[nH]c3n2)c1 | 168 to 171 °C |
| CN(C)CCNc1nc(Nc2cccc(NS(C)(=O)=O)c2)nc2[nH]cnc12 | 191 to 195 °C |
| CC(C)Nc1nc(Nc2cccc(NS(C)(=O)=O)c2)nc2[nH]cnc12 | 161 to 165 °C |
| CC(C)(C)CNc1nc(Nc2cccc(NS(C)(=O)=O)c2)nc2[nH]cnc12 | 270 to 273 °C |
| CS(=O)(=O)Nc1cccc(Nc2nc(NCc3ccccc3CO)c3nc[nH]c3n2)c1 | 145 to 148 °C |
| CS(=O)(=O)Nc1cccc(Nc2nc(OC3CCCC3)c3nc[nH]c3n2)c1 | 137 to 140 °C |
| CS(=O)(=O)Nc1cccc(Nc2nc(NC3CCC3)c3nc[nH]c3n2)c1 | 142 to 146 °C |
| CS(=O)(=O)Nc1cccc(Nc2nc(NCc3ncc[nH]3)c3nc[nH]c3n2)c1 | 216 to 220 °C |
| CS(=O)(=O)Nc1cccc(Nc2nc(NCCc3c[nH]cn3)c3nc[nH]c3n2)c1 | 205 to 210 °C |
| CS(=O)(=O)Nc1cccc(Nc2nc(N3CCC(O)C3)c3nc[nH]c3n2)c1 (stereo not shown) | 243 to 248 °C |
| CS(=O)(=O)Nc1cccc(Nc2nc(NCC3CCCCN3)c3nc[nH]c3n2)c1 (stereo not shown) | 147 to 150 °C |
| CC(C)N(CCNc1nc(Nc2cccc(NS(C)(=O)=O)c2)nc2[nH]cnc12)C(C)C | 226 to 230 °C |
| C[C@@H](Nc1nc(Nc2cccc(NS(C)(=O)=O)c2)nc2[nH]cnc12)c1ccccc1 | 136 to 139 °C |
| CS(=O)(=O)Nc1cccc(Nc2nc(NCCO)c3nc[nH]c3n2)c1 | 163 to 166 °C |
| CS(=O)(=O)Nc1cccc(Nc2nc(NCc3cccc(O)c3)c3nc[nH]c3n2)c1 | 221 to 225 °C |
| CS(=O)(=O)Nc1cccc(Nc2nc(NCCc3ccccn3)c3nc[nH]c3n2)c1 | 199 to 202 °C |
| CS(=O)(=O)Nc1cccc(Nc2nc(NC3CCCC3)c3nc[nH]c3n2)c1 | 234 to 239 °C |
| CC(C)[C@@H](CO)Nc1nc(Nc2cccc(NS(C)(=O)=O)c2)nc2[nH]ccc12 | 106 to 109 °C |
| C[C@@H](Nc1nc(Nc2cccc(NS(C)(=O)=O)c2)nc2[nH]cnc12)C(C)(C)C | 169 to 171 °C |
| O=S(=O)(Nc1cccc(Nc2nc(NC3CCCC3)c3nc[nH]c3n2)c1)C(F)(F)F | 243 to 246 °C |
| CS(=O)(=O)Nc1cccc(Nc2nc(NCC(O)CO)c3nc[nH]c3n2)c1 (stereo not shown) | 164 to 168 °C |
| CS(=O)(=O)Nc1cccc(Nc2nc(OC3CCOC3)c3nc[nH]c3n2)c1 (stereo not shown) | 255 to 257 °C |

Hello, the source for this data is patent US20080261973A1, in case you need it.
